Assignment: determine reported growth inhibition for the given molecules.
# Method: NCI Yeast Anticancer Drug Screen. Data for the mlh1 rad18 strain (AID 175)
# Stated Conditions: S. cerevisiae mlh1 rad18 strain growth inhibition; at 50.0 µM; active compounds read high
Compounds without any hit were thinned out: in the full panel of roughly 79,000, 15% have a hit.
Answers are plain numbers, in %.

[[record]]
molecule = "COc1cc(N=Nc2ccc([N+](=O)[O-])cc2)c([OH+]C)cc1[N+]#N.COc1cc(N=Nc2ccc([N+](=O)[O-])cc2)c([OH+]C)cc1[N+]#N.[Cl][Zn][Cl]"
unit_name = "%"
measurement = 12.6

[[record]]
molecule = "CCCCOP(=O)(O)OCCCC.[V]"
unit_name = "%"
measurement = 0.65

[[record]]
molecule = "CCOC(=O)CC(Br)C(=O)CBr (configuration not stated)"
unit_name = "%"
measurement = -9.6


Would you mind listing growth inhibition for each of the following molecules?
1. Cc1ccc2cc3c(ccc4ccccc43)c3c2c1CC3
2. Clc1cccc2nncc(N3CC3)c12

[1.85, 9.25]

Would you mind listing growth inhibition for each of the following molecules?
1. CC1(C)N=C(N)N=C(N)N1c1ccc(CCC(=O)Nc2cccc(S(=O)(=O)F)c2)c(Cl)c1
2. O=P(OCCCl)(OCCCl)OCCCl

1. 8.05
2. -5

Would you mind listing growth inhibition for each of the following molecules?
1. [N-]=[N+]=CC(=O)C1(C(=O)C=[N+]=[N-])CC1
2. CCC(Br)C(=O)OCCCl (configuration not stated)
3. N=C(N)N.[O]=[Cr](=[O])([OH])[OH]
4. C(=C\C1CC2CCCN2O1)/c1ccccc1 (configuration not stated)
5. NNC(N)=O
6. O=[Se](=O)(O)O
7. OCC1OC(n2nnc3cc(Cl)c(Cl)cc32)C(O)C1O (configuration not stated)

-27.1
3.6
30.6
11.2
-14.8
-14.5
21.7

Would you mind listing growth inhibition for each of the following molecules?
1. O=c1c2ccccc2[nH]c(=S)n1-c1cccc(Cl)c1
2. Cc1cccc(NC2=NCCO2)c1Cl
3. SCc1ccccc1.[Cu+2]
4. NNC(=O)Nc1ccc([N+](=O)[O-])cc1[N+](=O)[O-]
5. Clc1ccc(N=P(c2ccccc2)(c2ccccc2)c2ccccc2)cc1.[Cl][Cd][Cl]

1. 27.4
2. -27.3
3. -2.75
4. 20.5
5. 69

---

# Method: NCI Yeast Anticancer Drug Screen. Data for the mlh1 rad18 strain (AID 175)
# Stated Conditions: S. cerevisiae mlh1 rad18 strain growth inhibition; at 50.0 µM; active compounds read high
This is part of a sample that, as a whole, favours compounds with a hit. Of some 79,000 tested, about 15% had one in any assay.
Rule: growth inhibition under 10% gives NOT MET, otherwise MET.

Record excerpt, results attached:
[[record]]
compound = "CN(C)P(=O)(CC(O)c1ccccc1)N(C)C (stereo unspecified)"
assigned_category = "MET"

[[record]]
compound = "CN1CCN[C@@H]2CCCC[C@@H]21"
assigned_category = "NOT MET"

[[record]]
compound = "Cc1ccc(N[N+](=O)[O-])nc1"
assigned_category = "MET"

[[record]]
compound = "O=c1[nH]c(=O)[nH]c(=O)[nH]1"
assigned_category = "MET"

[[record]]
compound = "CC[N+](CC)(CC)CC.N#CC(C#N)=C([SH2+])[SH2+].N#CC(C#N)=C([SH2+])[SH2+].[Co+2]"
assigned_category = "MET"

[[record]]
compound = "C[N+]1=C(c2cccnc2/C=N/O)OCC1(C)C"
assigned_category = "NOT MET"


Decide: growth inhibition of `CCP(=S)(CC)P(=S)(CC)CC` >= 10%?
NOT MET

Decide: growth inhibition of CCOC(=N)CC(O)C(Cl)(Cl)Cl (stereo unspecified) >= 10%?
NOT MET

Decide: growth inhibition of `N[C@@H]1CCCC[C@@H]1N.O=P([O-])([O-])CN(CP(=O)([O-])[O-])CP(=O)([O-])[O-].[Pt+2]` >= 10%?
NOT MET

Decide: growth inhibition of CCOC(=O)C1C(=O)NC2CCC(=O)CC21c1ccc2c(c1)OCO2 (stereo unspecified) >= 10%?
MET

Decide: growth inhibition of `CCOC(OCC)c1ccccc1.[C-]#[O+].[C-]#[O+].[C-]#[O+].[Cr]` >= 10%?
NOT MET
